Data origin: patent US20260159512A1

Biological target: BCAT2 (Homo sapiens, UniProt O15382)
Sequence (O15382 28-392): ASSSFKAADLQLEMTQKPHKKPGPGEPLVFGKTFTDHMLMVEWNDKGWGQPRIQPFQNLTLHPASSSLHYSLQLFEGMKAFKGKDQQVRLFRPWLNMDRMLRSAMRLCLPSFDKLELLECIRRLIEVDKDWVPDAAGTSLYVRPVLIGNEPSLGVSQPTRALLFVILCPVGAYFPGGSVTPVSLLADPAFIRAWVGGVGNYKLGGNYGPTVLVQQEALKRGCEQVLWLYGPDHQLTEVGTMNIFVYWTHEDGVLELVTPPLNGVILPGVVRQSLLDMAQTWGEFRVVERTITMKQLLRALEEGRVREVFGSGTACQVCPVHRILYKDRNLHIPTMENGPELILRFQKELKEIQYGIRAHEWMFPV
Test: BCAT2 in vitro enzyme inhibition assay (resazurin/diaphorase-coupled fluorescence)
Assay type: biochemical
Settings: average where tested multiple times
pIC50: −log10 of the molar value.
Entries and their pIC50
property-measured: pIC50

INSERT INTO assay_data (structure_string, property_measured, readout_value) VALUES
  ('COc1cccc(-c2nc3cnc(-c4nc[nH]n4)cc3n2[C@@H]2CCC[C@H](NC(=O)c3ccc(Cl)s3)C2)c1F', 'pIC50', '≥ 7.00'),
  ('CC(C)Cc1nc2cnc(-c3ccn[nH]3)cc2n1[C@@H]1CCC[C@H](NC(=O)c2ncc(Cl)s2)[C@H]1O', 'pIC50', '≥ 7.00'),
  ('O=C(N[C@H]1CCC[C@@H](n2c(COC(F)(F)F)nc3cnc(-n4nccn4)cc32)C1)c1ncc(Cl)s1', 'pIC50', '≥ 7.00'),
  ('O=C(N[C@H]1C[C@H](O)C[C@@H](n2c(-c3ccccc3F)nc3cnc(-c4nc[nH]n4)cc32)C1)c1ccc(Cl)s1', 'pIC50', '≥ 7.00'),
  ('CC(C)Cc1nc2cnc(-c3nc[nH]n3)cc2n1[C@@H]1C[C@@H](O)C[C@H](NC(=O)c2ncc(Cl)s2)C1', 'pIC50', '≥ 7.00'),
  ('O=C(N[C@H]1CCC[C@@H](n2c(-c3c(O)cccc3F)nc3cnc(-c4nc[nH]n4)cc32)C1)c1ncc(Cl)s1', 'pIC50', '≥ 7.00'),
  ('O=C(N[C@H]1CCC[C@@H](n2c(-c3ccccn3)nc3cnc(-n4ccnn4)cc32)C1)c1ncc(Br)s1', 'pIC50', '6.30 to 7.00');
